Recorded values, source the PolyMetriX glass transition set.

// condition not met strictly below 200 °C in glass transition temperature; condition met otherwise

In plain terms: is recorded glass transition temperature at least 200 °C for *c1ccc(C(c2ccc(-c3cc(-c4ccccc4)c4cc(Oc5ccc6nc(*)cc(-c7ccccc7)c6c5)ccc4n3)cc2)(C(F)(F)F)C(F)(F)F)cc1 (repeat unit) ?
condition met

In plain terms: is recorded glass transition temperature at least 200 °C for *CC(*)(C)C(=O)OCCCCCCOc1ccc(OC(=O)c2ccc(OCCCC)cc2)cc1 (repeat unit) ?
condition not met

In plain terms: is recorded glass transition temperature at least 200 °C for *C(=O)CCCCCCCCC(=O)N1CC(C)N(*)CC1C (repeat unit) ?
condition not met

In plain terms: is recorded glass transition temperature at least 200 °C for *Nc1ccc(*)cc1OCCCCCCCCCC (repeat unit) ?
condition not met

In plain terms: is recorded glass transition temperature at least 200 °C for *CC(OC(C)=O)C(COC(=O)O*)OC(C)=O (repeat unit) ?
condition not met

In plain terms: is recorded glass transition temperature at least 200 °C for *CCN(CCOC(=O)NCC1(C)CC(NC(=O)O*)CC(C)(C)C1)c1ccc(/N=N/c2ccc(B(c3c(C)cc(C)cc3C)c3c(C)cc(C)cc3C)cc2)cc1 (repeat unit) ?
condition not met

In plain terms: is recorded glass transition temperature at least 200 °C for *CC(*)(C)C(=O)OCC(F)(F)C(F)F (repeat unit) [Poly(2,2,3,3-tetrafluoropropyl methacrylate)] ?
condition not met

In plain terms: is recorded glass transition temperature at least 200 °C for *CC(*)C (repeat unit) [Poly(propylene)] ?
condition not met

In plain terms: is recorded glass transition temperature at least 200 °C for *CCOCCOC(=O)c1cccc(C(=O)O*)c1 (repeat unit) ?
condition not met

In plain terms: is recorded glass transition temperature at least 200 °C for *C(=O)Nc1ccc(Oc2ccc(N3C(=O)CC(N4C(=O)c5ccc(*)cc5C4=O)C3=O)cc2)cc1 (repeat unit) ?
condition met

In plain terms: is recorded glass transition temperature at least 200 °C for *OC(=O)C(Cc1ccccc1)NC(=O)CCCCCCCCC(=O)NC(Cc1ccccc1)C(=O)OC1COC2C(*)COC12 (repeat unit) ?
condition not met

In plain terms: is recorded glass transition temperature at least 200 °C for *CCCCCCCCOC(=O)c1ccc(-c2ccc(C(=O)O*)cc2)cc1 (repeat unit) ?
condition not met

In plain terms: is recorded glass transition temperature at least 200 °C for *c1ccc(Oc2ccc(C(=O)c3ccc(Oc4ccc(-c5c6c(c(*)c7ccccc57)C(=O)N(c5ccccc5)C6=O)cc4)cc3)cc2)cc1 (repeat unit) ?
condition met

In plain terms: is recorded glass transition temperature at least 200 °C for *c1ccc(NC(=O)CN2C(=O)c3ccc(C(c4ccc5c(c4)C(=O)N(CC(=O)Nc4ccc(-c6nnc(*)o6)cc4)C5=O)(C(F)(F)F)C(F)(F)F)cc3C2=O)cc1 (repeat unit) ?
condition met

In plain terms: is recorded glass transition temperature at least 200 °C for *O[Si](C)(C)CC[Si](*)(C)C (repeat unit) ?
condition not met

In plain terms: is recorded glass transition temperature at least 200 °C for */C=C/C(C)(C(=O)OC)C(*)C (repeat unit) ?
condition not met

In plain terms: is recorded glass transition temperature at least 200 °C for *CC(*)c1ccc(C(=O)C(F)(F)F)cc1 (repeat unit) ?
condition not met

In plain terms: is recorded glass transition temperature at least 200 °C for *Oc1ccc(S(=O)(=O)c2ccc(Oc3ccc(C(C)(C)c4ccc(*)cc4)cc3)c(S(=O)(=O)O)c2)cc1S(=O)(=O)O (repeat unit) ?
condition not met

In plain terms: is recorded glass transition temperature at least 200 °C for *c1ccc(-c2ccc(-c3c(-c4ccccc4)nc4ccc(Oc5ccc6nc(-c7ccccc7)c(*)c(-c7ccccc7)c6c5)cc4c3-c3ccccc3)cc2)cc1 (repeat unit) ?
condition met

In plain terms: is recorded glass transition temperature at least 200 °C for *CC(*)(CC(=O)OC)C(=O)OC12CC3CC(C)(CC(C)(C3)C1)C2 (repeat unit) ?
condition not met

In plain terms: is recorded glass transition temperature at least 200 °C for *c1cc(N2C(=O)c3ccc(P(=O)(c4ccccc4)c4ccc5c(c4)C(=O)N(*)C5=O)cc3C2=O)cc(C(F)(F)F)c1 (repeat unit) ?
condition met

In plain terms: is recorded glass transition temperature at least 200 °C for *CCCCOC(=O)O* (repeat unit) ?
condition not met

In plain terms: is recorded glass transition temperature at least 200 °C for *C(=O)c1ccc2c(c1)C(=O)N(c1c(C)cc(C(c3cc(C)c(N4C(=O)c5ccc(*)cc5C4=O)c(C)c3)c3cccc4ccccc34)cc1C)C2=O (repeat unit) ?
condition met

In plain terms: is recorded glass transition temperature at least 200 °C for *CCCCCCCCCCOc1ccc(CCc2ccc(O*)cc2C)cc1 (repeat unit) ?
condition not met

In plain terms: is recorded glass transition temperature at least 200 °C for *c1ccc(-c2ccc(-c3nnc(-c4ccc([Si](c5ccccc5)(c5ccccc5)c5ccc(-c6nnc(*)o6)cc5)cc4)o3)cc2)cc1 (repeat unit) ?
condition met

In plain terms: is recorded glass transition temperature at least 200 °C for *c1[nH]c2ccccc2c1* (repeat unit) ?
condition not met

In plain terms: is recorded glass transition temperature at least 200 °C for *c1ccc(-c2cnc3cc4nc(*)cnc4cc3n2)cc1 (repeat unit) ?
condition met

In plain terms: is recorded glass transition temperature at least 200 °C for *c1ccc(Oc2cccc(-n3c(=O)c4cc5c(=O)n(-c6cccc(Oc7ccc(-c8nc9cc%10sc(*)nc%10cc9s8)cc7)c6)c(=O)c5cc4c3=O)c2)cc1 (repeat unit) ?
condition met

In plain terms: is recorded glass transition temperature at least 200 °C for *C(=O)c1ccc2c(c1)C(=O)N(c1ccc(C(C)(C)c3ccc(C(C)(C)c4ccc(N5C(=O)c6ccc(*)cc6C5=O)cc4)cc3)cc1)C2=O (repeat unit) ?
condition met

In plain terms: is recorded glass transition temperature at least 200 °C for *C(F)(F)C(*)(F)OC(F)(F)C(F)(F)C(F)(F)C(F)(F)F (repeat unit) ?
condition not met

In plain terms: is recorded glass transition temperature at least 200 °C for *C1OCOC(C(*)(F)F)C1(F)F (repeat unit) ?
condition not met

###

readout: glass transition temperature (°C)
Report as a plain number; the unit °C is understood.

Would you mind telling me what glass transition temperature value was observed for *c1ccc(Oc2ccc(-c3nc(-c4cccc(-c5nnc(-c6ccccc6)c(*)n5)n4)nnc3-c3ccccc3)cc2)cc1 (repeat unit) ?
219.00

Would you mind telling me what glass transition temperature value was observed for *C(=O)c1ccc2c(c1)C(=O)N(c1cccc(C(=O)c3ccccc3N3C(=O)c4ccc(*)cc4C3=O)c1)C2=O (repeat unit) ?
259.00

Would you mind telling me what glass transition temperature value was observed for *Oc1ccc(C(=O)c2cccc(C(=O)c3ccc(*)c(C(C)C)c3)c2)cc1C (repeat unit) ?
147.00

Would you mind telling me what glass transition temperature value was observed for *Oc1ccc(CC(NC(=O)Cc2ccc(OC(=O)CCC(*)=O)cc2)C(=O)OCCCCCC)cc1 (repeat unit) ?
59.00

Would you mind telling me what glass transition temperature value was observed for *Cc1cc2cc(C(=O)Nc3ccc(S(=O)(=O)c4ccc(NC(=O)c5cc6cc(*)c(OC(=O)COc7ccc8ccc(=O)oc8c7)cc6oc5=O)cc4)cc3)c(=O)oc2cc1OC(=O)COc1ccc2ccc(=O)oc2c1 (repeat unit) ?
233.00

Would you mind telling me what glass transition temperature value was observed for *CC1CC2CC1C1CCC(Cn3c(=O)c4cc5c(=O)n(*)c(=O)c5cc4c3=O)C21 (repeat unit) ?
265.00

Would you mind telling me what glass transition temperature value was observed for *CC(C)(C)COC(=O)Nc1ccc(Cc2ccc(NC(=O)O*)cc2)cc1 (repeat unit) ?
94.00

###

Exercise: state measured glass transition temperature for each of the compounds provided.
Report as a plain number; the unit °C is understood.

Would you mind telling me what glass transition temperature value was observed for *c1nc(C)nc(N(CCCCCCCCCCN(*)c2ccccc2)c2ccccc2)n1 (repeat unit) ?
48.00

Would you mind telling me what glass transition temperature value was observed for */C=C/C(C)C(*)C(=O)OC12CC3CC(CC(C3)C1)C2 (repeat unit) ?
115.00

Would you mind telling me what glass transition temperature value was observed for *CCCC(=O)Oc1ccc(-c2ccc(OC(=O)c3ccc4c(c3)C(=O)N(*)C4=O)cc2)cc1 (repeat unit) ?
132.00

Would you mind telling me what glass transition temperature value was observed for *COC(=O)Nc1ccc(Cc2ccc(NC(=O)OCc3ccc(*)o3)cc2)cc1 (repeat unit) ?
81.00

Would you mind telling me what glass transition temperature value was observed for *CC(CCCCCCCCCC)O* (repeat unit) ?
-41.00

Would you mind telling me what glass transition temperature value was observed for */C=C/C(C*)COCC(=O)OCCCCCCCCOc1ccc(/C=C/c2ccc([N+](=O)[O-])cc2)cc1 (repeat unit) ?
23.00

Would you mind telling me what glass transition temperature value was observed for *c1ccc(Oc2ccc(Oc3ccc(-n4c(=O)c5cc6c(=O)n(*)c(=O)c6cc5c4=O)cc3)cc2)cc1 (repeat unit) ?
292.00

Would you mind telling me what glass transition temperature value was observed for *CCCCN1C(=O)C2C3C=CC(C4C(=O)N(*)C(=O)C34)C2C1=O (repeat unit) ?
211.00
